- System: NCI-H522 lung
- assay.procedure: NCI tumour cell line growth inhibition, 48 h
property.measured: log10 of TGI (log10 of the value in µM)
Transform log10 | Measure TGI | Unit µM

Recorded results for 7 compounds are shown here.
log10 of TGI for COc1cc2c3c(n(C)c(=O)c2cc1OC)-c1cc2c(cc1/C3=C\CCNCCCN)OCO2 is 1.41

The compound listed as CC(C)(C)OC(=O)NCC(=O)N1CCN(C(=O)CNC(=O)OC(C)(C)C)CC1 has a reported log10 of TGI of 0.85

Value of log10 of TGI reported for the compound CCOc1ccc2c(c1)c(=O)c1c(NCCN(CC)CC)ccc3nnn2c31 is 1.44

Field log10 of TGI (entry O=C(/C=C\c1cccc2ccccc12)c1cccc2ccccc12 ) reads 1.21

Form field log10 of TGI, entry Oc1c(CN2CCN(c3ccccc3)CC2)cc(Br)c2cccnc12 : 1.57

For this compound ( O=[N+]([O-])C(Cl)=C/C(=C(\Cl)SCc1ccccc1)[N+](=O)[O-] ), measured log10 of TGI is 1.66

Reported log10 of TGI for CC1(C)C(=O)/C(=C\c2cccnc2)C[C@]2(C)[C@H]3CC[C@@H]4[C@@H](C(=O)/C=C/c5ccncc5)CC[C@@]4(C)[C@]3(C)CC[C@@H]12 was 0.66

We now examine a further compound.
According to the records, this compound O=c1ccc2nc(-c3ccccn3)nn(-c3ccccc3)c-2c1 displays log10 of TGI of 0.49
